# System: HT-1080
# ASSAY INFO: Cytotoxicity against HT1080 cells at 0.1 uM after 72 hrs
# Format: functional
# CONDITION: Homo sapiens, HT-1080, 72 h
READOUT LABEL: inhibition at 0.1 µM (%)

| COMPOUND | EXPERIMENTAL TARGET | RECORDED MEASUREMENT |
| --- | --- | --- |
| C[C@@H]1CC[C@@H](c2ccoc2)N2C[C@@]3(CC[C@@H]12)CS[C@@]1(CC[C@H]2[C@H](C)CC[C@@H](c4ccoc4)N2[C@@H]1O)C3 | HT-1080 | 5.4 |
| C[C@@H]1CC[C@@H](c2ccoc2)N2C[C@@]3(CC[C@@H]12)CS[C@@]1(CC[C@H]2[C@H](C)CC[C@@H](c4ccoc4)N2C1)C3 [THIOBINUPHARIDINE] | HT-1080 | 9.9 |
| C[C@@H]1CC[C@@H](c2ccoc2)N2C[C@@]3(CC[C@@H]12)CS[C@]1(CC[C@H]2[C@H](C)CC[C@@H](c4ccoc4)N2[C@@H]1O)C3 [6-HYDROXYTHIONUPHLUTINE B] | HT-1080 | 1 |
| C[C@@H]1CC[C@@H](c2ccoc2)N2C[C@@]3(CC[C@@H]12)C[S+]([O-])[C@]1(CC[C@H]2[C@H](C)CC[C@@H](c4ccoc4)N2C1)C3 (stereo not given in full) | HT-1080 | -6.1 |
| C[C@@H]1CC[C@@H](c2ccoc2)N2C[C@]3(CC[C@@H]12)CS[C@]1(CC[C@H]2[C@H](C)CC[C@@H](c4ccoc4)N2C1)C3 [NEOTHIOBINUPHARIDINE] | HT-1080 | -3.4 |

====

Recorded inhibition at 1 µM by entry
# Tested on: HT-1080
# ASSAY INFO: Cytotoxicity against HT1080 cells at 1.0 uM after 72 hrs
# Type: functional
# CONDITION: Homo sapiens, HT-1080, 72 h
READOUT LABEL: inhibition at 1 µM (%)

| MOLECULE | READOUT LABEL | RECORDED MEASUREMENT |
| --- | --- | --- |
| COc1cc([C@H]2Oc3c(OC)cc(CCCO)cc3[C@@H]2CO)ccc1O [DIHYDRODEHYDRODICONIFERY ALCOHOL] | inhibition at 1 µM | 5.2 |
| C[C@@H]1CC[C@@H](c2ccoc2)N2[C@H]1CC[C@@]1(CS[C@@]3(CC[C@H]4[C@H](C)CC[C@@H](c5ccoc5)N4[C@@H]3O)C1)[C@H]2O | inhibition at 1 µM | -0.9 |
| C[C@@H]1CC[C@@H](c2ccoc2)N2C[C@@]3(CC[C@@H]12)CS[C@]1(CC[C@H]2[C@H](C)CC[C@@H](c4ccoc4)N2[C@@H]1O)C3 [6-HYDROXYTHIONUPHLUTINE B] | inhibition at 1 µM | 63.5 |

====

# System: HT-1080
# ASSAY INFO: Cytotoxicity against HT1080 cells at 10 uM after 48 hrs
# Type: functional
# CONDITION: Homo sapiens, HT-1080, 48 h
In this section we review reported inhibition at 10 µM values for a set of compounds.

| COMPOUND | EXPERIMENTAL TARGET | inhibition at 10 µM |
| --- | --- | --- |
| C[C@@H]1CC[C@@H](c2ccoc2)N2[C@H]1CC[C@@]1(CS[C@@]3(CC[C@H]4[C@H](C)CC[C@@H](c5ccoc5)N4[C@@H]3O)C1)[C@H]2O | HT-1080 | 75% |
| C[C@@H]1CC[C@@H](c2ccoc2)N2C[C@]3(CC[C@@H]12)CS[C@]1(CC[C@H]2[C@H](C)CC[C@@H](c4ccoc4)N2C1)C3 | HT-1080 | 7.5% |
| C[C@@H]1CC[C@@H](c2ccoc2)N2C[C@@]3(CC[C@@H]12)CS[C@]1(CC[C@H]2[C@H](C)CC[C@@H](c4ccoc4)N2[C@@H]1O)C3 [6-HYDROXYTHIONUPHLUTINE B] | HT-1080 | 98% |
| CC[C@@]1(O)C(=O)OCc2c1cc1n(c2=O)Cc2cc3ccccc3nc2-1 | HT-1080 | 93.1% |
| C[C@@H]1CC[C@@H](c2ccoc2)N2C[C@@]3(CC[C@@H]12)CS[C@@]1(CC[C@H]2[C@H](C)CC[C@@H](c4ccoc4)N2[C@@H]1O)C3 | HT-1080 | 97.5% |

====

Below is a list of entries, each paired with its recorded inhibition at 1 µM value.
# System: HT-1080
# ASSAY INFO: Cytotoxicity against HT1080 cells at 1.0 uM after 48 hrs
# Format: functional
# CONDITION: Homo sapiens, HT-1080, 48 h

| COMPOUND | EXPERIMENTAL TARGET | inhibition at 1 µM |
| --- | --- | --- |
| C[C@@H]1CC[C@@H](c2ccoc2)N2C[C@]3(CC[C@@H]12)CS[C@]1(CC[C@H]2[C@H](C)CC[C@@H](c4ccoc4)N2C1)C3 | HT-1080 | -4.1% |
| CC[C@@]1(O)C(=O)OCc2c1cc1n(c2=O)Cc2cc3ccccc3nc2-1 | HT-1080 | 77% |
| C[C@@H]1CC[C@@H](c2ccoc2)N2[C@H]1CC[C@@]1(CS[C@@]3(CC[C@H]4[C@H](C)CC[C@@H](c5ccoc5)N4[C@@H]3O)C1)[C@H]2O | HT-1080 | 0.5% |
| C[C@@H]1CC[C@@H](c2ccoc2)N2C[C@@]3(CC[C@@H]12)CS[C@@]1(CC[C@H]2[C@H](C)CC[C@@H](c4ccoc4)N2[C@@H]1O)C3 | HT-1080 | 8.3% |
| C[C@@H]1CC[C@@H](c2ccoc2)N2C[C@@]3(CC[C@@H]12)CS[C@]1(CC[C@H]2[C@H](C)CC[C@@H](c4ccoc4)N2[C@@H]1O)C3 [6-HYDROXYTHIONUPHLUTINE B] | HT-1080 | 53.3% |

====

# Test system: U-937
# ASSAY INFO: Cytotoxicity against U937 cells at 10 uM after 48 hrs
# Assay type: functional
# CONDITION: Homo sapiens, U-937, 48 h

| COMPOUND | inhibition at 10 µM / % |
| --- | --- |
| C[C@@H]1CC[C@@H](c2ccoc2)N2C[C@@]3(CC[C@@H]12)CS[C@@]1(CC[C@H]2[C@H](C)CC[C@@H](c4ccoc4)N2[C@@H]1O)C3 | 92.5 |
| C[C@@H]1CC[C@@H](c2ccoc2)N2[C@H]1CC[C@@]1(CS[C@@]3(CC[C@H]4[C@H](C)CC[C@@H](c5ccoc5)N4[C@@H]3O)C1)[C@H]2O | 80 |
| C[C@@H]1CC[C@@H](c2ccoc2)N2C[C@@]3(CC[C@@H]12)CS[C@]1(CC[C@H]2[C@H](C)CC[C@@H](c4ccoc4)N2[C@@H]1O)C3 [6-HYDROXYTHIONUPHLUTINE B] | 91.3 |
| C[C@@H]1CC[C@@H](c2ccoc2)N2C[C@]3(CC[C@@H]12)CS[C@]1(CC[C@H]2[C@H](C)CC[C@@H](c4ccoc4)N2C1)C3 | 65.6 |
| CC[C@@]1(O)C(=O)OCc2c1cc1n(c2=O)Cc2cc3ccccc3nc2-1 | 98.2 |

====

# Test system: HT-1080
# ASSAY INFO: Cytotoxicity against HT1080 cells at 1.0 uM after 72 hrs
# Type: functional
# CONDITION: Homo sapiens, HT-1080, 72 h

| MOLECULE | inhibition at 1 µM / % |
| --- | --- |
| C[C@@H]1CC[C@@H](c2ccoc2)N2C[C@]3(CC[C@@H]12)CS[C@]1(CC[C@H]2[C@H](C)CC[C@@H](c4ccoc4)N2C1)C3 | -0.8 |
| C[C@@H]1CC[C@@H](c2ccoc2)N2C[C@@]3(CC[C@@H]12)CS[C@]1(CC[C@H]2[C@H](C)CC[C@@H](c4ccoc4)N2C1)C3 | 0.9 |
| C[C@@H]1CC[C@H]2[C@H](C)CC[C@@H](c3ccoc3)N2C1 [(-)-7-EPI-DEOXYNUPHARIDINE] | -6.6 |
| CC[C@@]1(O)C(=O)OCc2c1cc1n(c2=O)Cc2cc3ccccc3nc2-1 | 65.8 |
| C[C@H]1CC[C@H]2[C@H](C)CC[C@@H](c3ccoc3)[N+]2([O-])C1 (stereo not given in full) | -9 |

====

# System: U-937
# ASSAY INFO: Cytotoxicity against U937 cells at 1.0 uM after 48 hrs
# Format: functional
# CONDITION: Homo sapiens, U-937, 48 h
# if value of inhibition at 1 µM reaches 5%, tag Y; if it stays below, tag N

| COMPOUND | LABEL VALUE |
| --- | --- |
| C[C@@H]1CC[C@@H](c2ccoc2)N2C[C@@]3(CC[C@@H]12)CS[C@@]1(CC[C@H]2[C@H](C)CC[C@@H](c4ccoc4)N2[C@@H]1O)C3 | N |
| C[C@@H]1CC[C@@H](c2ccoc2)N2[C@H]1CC[C@@]1(CS[C@@]3(CC[C@H]4[C@H](C)CC[C@@H](c5ccoc5)N4[C@@H]3O)C1)[C@H]2O | N |
| C[C@@H]1CC[C@@H](c2ccoc2)N2C[C@]3(CC[C@@H]12)CS[C@]1(CC[C@H]2[C@H](C)CC[C@@H](c4ccoc4)N2C1)C3 | Y |
| C[C@@H]1CC[C@@H](c2ccoc2)N2C[C@@]3(CC[C@@H]12)CS[C@]1(CC[C@H]2[C@H](C)CC[C@@H](c4ccoc4)N2[C@@H]1O)C3 [6-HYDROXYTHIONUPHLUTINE B] | Y |
| CC[C@@]1(O)C(=O)OCc2c1cc1n(c2=O)Cc2cc3ccccc3nc2-1 | Y |
